assay: in vitro; settings: PAMPA, pH 7.4, PAMPA Papp;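 also: artificial membrane of 1% soy lecithin in dodecane on a filter plate, donor and acceptor buffer PBS pH 7.4 with 5% DMSO, incubated overnight at room temperature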
Positions of bridges follow the written chain, without caps; N, C: chain ends. Non-standard residues stand in square brackets, D forms with d. Residues, ends and D or L forms follow the SMILES beside them. NMeC = CN[C@@H](CS)C(=O)O; NMeA = CN[C@@H](C)C(=O)O; dAbu = CC[C@@H](N)C(=O)O; dNMeA = CN[C@H](C)C(=O)O; Nva = CCC[C@H](N)C(=O)O; Abu = CC[C@H](N)C(=O)O; Nleu = CC(C)CNCC(=O)O; NPrGly = CCCNCC(=O)O
Parameter: Papp at 10 µM (×10⁻⁶ cm/s)
# unit: ×10⁻⁶ cm/s | format: bare number

Solved cases below.
CCOC(=O)[C@@H]1CSCC(=O)N[C@H](CC)C(=O)N(CC(C)C)CC(=O)N[C@@H](CC(C)C)C(=O)N(C)[C@H](C)C(=O)N(C)[C@@H](C)C(=O)N[C@H](CC(C)C)C(=O)N(C)[C@@H](C)C(=O)N[C@@H](CC(C)C)C(=O)N1C [B1-7L] ({CH2CO}-[dAbu][Nleu]L[dNMeA][NMeA][dL][NMeA]L[NMeC]-OEt; thioether N-9)	5.7
CCOC(=O)[C@@H]1CSCC(=O)N[C@H](CC)C(=O)N(CC(C)C)CC(=O)N[C@@H](CC(C)C)C(=O)N(C)[C@H](C)C(=O)N(C)[C@@H](C)C(=O)N[C@H](CC(C)C)C(=O)N(C)[C@H](C)C(=O)N[C@@H](CC(C)C)C(=O)N1C [B1] ({CH2CO}-[dAbu][Nleu]L[dNMeA][NMeA][dL][dNMeA]L[NMeC]-OEt; thioether N-9)	10.1

Entry under review: CCOC(=O)[C@@H]1CSCC(=O)N[C@H](CC)C(=O)N(CC(C)C)CC(=O)N[C@H](CC(C)C)C(=O)N(C)[C@H](C)C(=O)N(C)[C@@H](C)C(=O)N[C@H](CC(C)C)C(=O)N(C)[C@H](C)C(=O)N[C@@H](CC(C)C)C(=O)N1C [B1-3D] ({CH2CO}-[dAbu][Nleu][dL][dNMeA][NMeA][dL][dNMeA]L[NMeC]-OEt; thioether N-9) . Reported Papp at 10 µM?
1.5

Quick one: Papp at 10 µM of CCC[C@@H]1NC(=O)CN(CCC)C(=O)[C@H](CC(C)C)NC(=O)CSC[C@@H](C(=O)OCC)N(C)C(=O)[C@H](CC(C)C)NC(=O)[C@H](C)N(C)C(=O)[C@H](CC(C)C)NC(=O)[C@H](C)N(C)C(=O)[C@H]2CCCN2C1=O [LB07] ({CH2CO}-L[NPrGly][Nva][dP][NMeA]L[NMeA]L[NMeC]-OEt; thioether N-9) ?
3.1

Reported Papp at 10 µM for CCOC(=O)[C@@H]1CSCC(=O)N[C@@H](CC)C(=O)N(CC(C)C)CC(=O)N[C@@H](CC(C)C)C(=O)N(C)[C@H](C)C(=O)N(C)[C@@H](C)C(=O)N[C@H](CC(C)C)C(=O)N(C)[C@H](C)C(=O)N[C@@H](CC(C)C)C(=O)N1C [B1-1L] ({CH2CO}-[Abu][Nleu]L[dNMeA][NMeA][dL][dNMeA]L[NMeC]-OEt; thioether N-9) : what is it?
0.5

Reported Papp at 10 µM for CCOC(=O)[C@@H]1CSCC(=O)N[C@H](CC)C(=O)N(CC(C)C)CC(=O)N[C@@H](CC(C)C)C(=O)N(C)[C@H](C)C(=O)N(C)[C@@H](C)C(=O)N[C@@H](CC(C)C)C(=O)N(C)[C@H](C)C(=O)N[C@@H](CC(C)C)C(=O)N1C [B1-6L] ({CH2CO}-[dAbu][Nleu]L[dNMeA][NMeA]L[dNMeA]L[NMeC]-OEt; thioether N-9) : what is it?
0.7

Value lookup for Papp at 10 µM; key = CCOC(=O)[C@@H]1CSCC(=O)N[C@H](CC)C(=O)N(CC(C)C)CC(=O)N[C@@H](CC(C)C)C(=O)N2CCC[C@@H]2C(=O)N(C)[C@@H](C)C(=O)N[C@H](CC(C)C)C(=O)N(C)[C@H](C)C(=O)N[C@@H](CC(C)C)C(=O)N1C [B1-4dP] ({CH2CO}-[dAbu][Nleu]L[dP][NMeA][dL][dNMeA]L[NMeC]-OEt; thioether N-9)
0.1
